Lab note: pIC50 readings collected with KAT6A (Homo sapiens, UniProt Q92794) for the following compounds.
Sequence (Q92794 with tags, fused parts or gaps): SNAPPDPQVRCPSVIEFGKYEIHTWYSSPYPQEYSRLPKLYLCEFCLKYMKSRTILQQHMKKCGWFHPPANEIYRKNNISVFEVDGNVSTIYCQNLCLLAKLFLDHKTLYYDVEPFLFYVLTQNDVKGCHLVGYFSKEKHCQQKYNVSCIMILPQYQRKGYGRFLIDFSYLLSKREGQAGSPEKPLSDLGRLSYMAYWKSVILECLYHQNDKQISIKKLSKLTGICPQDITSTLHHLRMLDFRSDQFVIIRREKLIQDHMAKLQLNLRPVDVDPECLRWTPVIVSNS
pIC50: −log10 of the molar value.

// known answers, use as guide
> print(dat)
                                    compound  reported.result
 1  Cc1cc(-c2ccccc2)c(F)c(C(=O)NNS(=O)(=O)c2ccccc2)c1F [Compound I-223]           ≥ 5.00
 2  COCCNC(=O)c1cccc(-c2cc(C)c(F)c(C(=O)NNS(=O)(=O)C3CCCCC3)c2)c1 [Compound I-445]           < 4.00
 3  Cc1cc(-c2ccccc2)cc(C(=O)NNS(=O)(=O)Cc2cccc(Cl)c2)c1F [Compound I-5]           ≥ 5.00
 4  Cc1cc(-c2ccccc2)cc(C(=O)NNS(=O)(=O)c2cccc(OCc3ccccc3)c2)c1F [Compound I-210]           ≥ 5.00
 5  Cc1ccc(-c2ccccc2)c(F)c1C(=O)NNS(=O)(=O)c1ccccc1 [Compound I-139]           < 4.00
 6  Cc1cc(C)c(F)c(C(=O)NNS(=O)(=O)C2CCCCC2)c1 [Compound I-347]           < 4.00
 7  O=C(NNS(=O)(=O)c1cc(-c2ccccc2)cc(Cl)c1F)c1ccccc1 [Compound I-523]     4.30 to 5.00
 8  COCC(=O)N1CCC(CS(=O)(=O)NNC(=O)c2cc(-c3ccccc3)cc(C)c2F)C1 (centres unmarked) [Compound I-356]           ≥ 5.00
 9  O=C(NNC(=O)c1ccccc1F)c1ccccc1 [Compound I-138]           < 4.00
10  Cc1cc(-c2ccccc2)cc(C(=O)NNS(=O)(=O)c2cccc(C(N)=O)c2)c1F [Compound I-383]           ≥ 5.00

Suppose we examine the compound Cc1cccc(-c2cc(Cl)c(F)c(C(=O)NNS(=O)(=O)CC3CCNC3)c2)c1 (centres unmarked) [Compound I-517] ; what pIC50 value has been reported?
< 4.00

Suppose we examine the compound O=C(NNS(=O)(=O)C1CCCCC1)c1c(Cl)ccc(-c2ccccc2)c1Cl [Compound I-275] ; what pIC50 value has been reported?
< 4.00

Suppose we examine the compound COCCN1CCCC(S(=O)(=O)NNC(=O)c2cc(-c3ccccc3)cc(C)c2F)C1 (centres unmarked) [Compound I-101] ; what pIC50 value has been reported?
4.30 to 5.00

Suppose we examine the compound Cc1cc(-c2ccccc2)cc(C(=O)NNS(=O)(=O)C2CCCNC2)c1F (centres unmarked) [Compound I-97] ; what pIC50 value has been reported?
4.00 to 4.30

Suppose we examine the compound Cc1cc(-c2ccccc2)cc(C(=O)NNS(=O)(=O)c2cccnc2)c1F [Compound I-175] ; what pIC50 value has been reported?
≥ 5.00

Suppose we examine the compound CNC(=O)CCNC(=O)Cn1nc(C)c(F)c1C(=O)NNS(=O)(=O)C1CCCCC1 [Compound I-505] ; what pIC50 value has been reported?
< 4.00

Suppose we examine the compound Cc1cc(-c2cccc(F)c2)cc(C(=O)NNS(=O)(=O)CC2CN(C(=O)OC(C)(C)C)CCO2)c1F (centres unmarked) [Compound I-425] ; what pIC50 value has been reported?
≥ 5.00

---

Lab note: IC50 readings collected with KAT5 (Homo sapiens) for the following molecules.
Sequence (Q92993 with tags, fused parts or gaps): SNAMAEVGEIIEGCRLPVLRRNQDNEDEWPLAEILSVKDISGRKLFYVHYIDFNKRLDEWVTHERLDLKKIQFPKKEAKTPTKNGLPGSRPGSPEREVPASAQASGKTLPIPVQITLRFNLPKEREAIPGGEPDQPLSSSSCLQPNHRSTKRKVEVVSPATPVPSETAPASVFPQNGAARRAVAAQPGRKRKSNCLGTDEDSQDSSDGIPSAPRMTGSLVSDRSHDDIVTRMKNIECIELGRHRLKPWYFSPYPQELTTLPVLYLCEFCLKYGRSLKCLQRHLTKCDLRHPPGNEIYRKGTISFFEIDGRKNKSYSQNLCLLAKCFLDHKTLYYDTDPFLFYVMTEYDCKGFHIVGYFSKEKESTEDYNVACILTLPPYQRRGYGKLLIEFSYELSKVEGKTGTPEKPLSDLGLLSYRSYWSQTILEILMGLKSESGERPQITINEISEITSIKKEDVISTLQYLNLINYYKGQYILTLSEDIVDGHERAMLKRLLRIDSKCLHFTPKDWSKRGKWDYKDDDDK

// known answers, use as guide
> print(dat)
                                   molecule         assay.target  reported.result
1  Cc1cc(-c2cccc(F)c2)cc(C(=O)NNS(=O)(=O)CC2CCN(C(=O)CCN(C)C(=O)OC(C)(C)C)CC2)c1F  KAT5 (Homo sapiens)          ≤ 10 µM
2  O=C(NNS(=O)(=O)c1ccc(Cl)cc1)c1c(F)ccc(-c2ccccc2)c1F  KAT5 (Homo sapiens)      10 to 50 µM
3  COc1ccccc1CN1CC(S(=O)(=O)NNC(=O)c2cc(-c3ccccc3)cc(C)c2F)C1  KAT5 (Homo sapiens)      10 to 50 µM
4  Cc1cc(-c2ccccc2)cc(C(=O)NNS(=O)(=O)CC2CCCN(C(=O)OC(C)(C)C)C2)c1F (stereo not drawn)  KAT5 (Homo sapiens)          ≤ 10 µM
5  CCc1cccc(S(=O)(=O)NNC(=O)c2cc(-c3ccccc3)cc(C)c2F)c1  KAT5 (Homo sapiens)      10 to 50 µM

KAT5 (Homo sapiens) / IC50 / `Cc1cc(-c2cc(F)cc(F)c2)cc(C(=O)NNS(=O)(=O)CC2CCCCC2)c1F` : value?
10 to 50 µM

KAT5 (Homo sapiens) / IC50 / `Cc1cnc(CNC(=O)c2cc(-c3ccccc3)cc(C)c2F)[nH]1` : value?
> 100 µM

KAT5 (Homo sapiens) / IC50 / `O=C(NNS(=O)(=O)c1ccccc1)c1cc(-c2ccccc2)ccc1F` : value?
50 to 100 µM

KAT5 (Homo sapiens) / IC50 / `Cc1c(-c2ccccc2)ccc(F)c1C(=O)NNS(=O)(=O)Cc1ccccc1` : value?
50 to 100 µM

KAT5 (Homo sapiens) / IC50 / `Cc1cc(-c2ccccc2)cc(C(=O)NNS(=O)(=O)C2CN(Cc3ccccc3)C2)c1F` : value?
> 100 µM

KAT5 (Homo sapiens) / IC50 / O=C(NNS(=O)(=O)c1ccccc1)c1c(F)ccc(-c2ccccc2)c1F [Compound I-233] : value?
10 to 50 µM

KAT5 (Homo sapiens) / IC50 / `O=C(NNS(=O)(=O)c1ccc2ccccc2c1)c1ccccc1F` : value?
50 to 100 µM

KAT5 (Homo sapiens) / IC50 / `Cc1cc(-c2ccccc2)cc(C(=O)NNCC(F)(F)F)c1F` : value?
> 100 µM

KAT5 (Homo sapiens) / IC50 / `CCc1cccc(-c2cc(C)c(F)c(C(=O)NNS(=O)(=O)CC3CCCCC3)c2)c1` : value?
50 to 100 µM

KAT5 (Homo sapiens) / IC50 / Cc1cc(-c2ccccc2)cc(C(=O)NNS(=O)(=O)C(C)C2CCN(C(=O)OC(C)(C)C)CC2)c1F (stereo not drawn) : value?
10 to 50 µM

KAT5 (Homo sapiens) / IC50 / `Cc1cc(-c2ccccc2F)cc(C(=O)NNS(=O)(=O)C2CCCCC2)c1F` : value?
≤ 10 µM

KAT5 (Homo sapiens) / IC50 / Cc1cccc(F)c1C(=O)NNS(=O)(=O)CC(Cc1ccccc1)C(C)C (stereo not drawn) : value?
> 100 µM

KAT5 (Homo sapiens) / IC50 / CC(C)C(Cc1ccccc1)C(=O)NNS(=O)(=O)c1ccccc1 (stereo not drawn) : value?
> 100 µM

KAT5 (Homo sapiens) / IC50 / `COc1ccc(S(=O)(=O)NNC(=O)c2c(F)ccc(-c3ccccc3)c2C)cc1` : value?
50 to 100 µM

KAT5 (Homo sapiens) / IC50 / CC(=O)N1CCOC(CS(=O)(=O)NNC(=O)c2cc(-c3ccccc3)cc(C)c2F)C1 (stereo not drawn) : value?
≤ 10 µM

KAT5 (Homo sapiens) / IC50 / `COCCC(=O)N1CC(S(=O)(=O)NNC(=O)c2cc(-c3ccccc3)cc(C)c2F)C1` : value?
50 to 100 µM

KAT5 (Homo sapiens) / IC50 / CC(=O)N1CCCC(CS(=O)(=O)NNC(=O)c2cc(-c3cccc(F)c3)cc(C)c2F)C1 (stereo not drawn) : value?
≤ 10 µM

KAT5 (Homo sapiens) / IC50 / `O=C(NNS(=O)(=O)c1ccccc1)c1cccc(Cl)c1F` : value?
10 to 50 µM

KAT5 (Homo sapiens) / IC50 / `Cc1c(F)cc(-c2ccccc2)cc1C(=O)NNS(=O)(=O)c1ccccc1` : value?
> 100 µM

---

Lab note: pIC50 readings collected with KAT6A (Homo sapiens, UniProt Q92794) for the following compounds.
pIC50: −log10 of the molar value.

// known answers, use as guide
> print(dat)
                                   compound                          assay.target  reported.result
1  O=C(NNS(=O)(=O)c1ccc(Cl)cc1)c1ccccc1F [Compound I-143]  KAT6A (Homo sapiens, UniProt Q92794)     4.30 to 5.00
2  CC(C)C(Cc1ccccc1)C(=O)NNS(=O)(=O)c1ccccc1 (stereo not shown) [Compound I-260]  KAT6A (Homo sapiens, UniProt Q92794)           < 4.00

KAT6A (Homo sapiens, UniProt Q92794) / pIC50 / Cc1cc(-c2ccccc2)cc(C(=O)NNS(=O)(=O)CC2CCNC2)c1F (stereo not shown) [Compound I-320] : value?
4.30 to 5.00

KAT6A (Homo sapiens, UniProt Q92794) / pIC50 / O=C(NNS(=O)(=O)C1CCOCC1)c1cc(-c2cccc(CO)c2)cc(Cl)c1F [Compound I-482] : value?
4.30 to 5.00

KAT6A (Homo sapiens, UniProt Q92794) / pIC50 / O=C(NNS(=O)(=O)CC1CCCNC1)c1cc(-c2cccc(F)c2)cc(Cl)c1F (stereo not shown) [Compound I-416] : value?
4.00 to 4.30

KAT6A (Homo sapiens, UniProt Q92794) / pIC50 / O=C(NNS(=O)(=O)CC1CCOCC1)c1cc(-c2cccc(F)c2)cc(Cl)c1F [Compound I-397] : value?
≥ 5.00

KAT6A (Homo sapiens, UniProt Q92794) / pIC50 / Cc1cc(-c2ccccc2)cc(C(=O)NNS(=O)(=O)CC2CCCN(C(=O)CCN(C)C(=O)OC(C)(C)C)C2)c1F (stereo not shown) [Compound I-379] : value?
≥ 5.00

KAT6A (Homo sapiens, UniProt Q92794) / pIC50 / O=C(NNS(=O)(=O)C1CCCCC1)c1cc(-c2cc(F)cc(Cl)c2)cc(Cl)c1F [Compound I-490] : value?
4.30 to 5.00

KAT6A (Homo sapiens, UniProt Q92794) / pIC50 / Cc1c(-c2ccccc2)ccc(F)c1C(=O)NNS(=O)(=O)C1CCC1 [Compound I-243] : value?
< 4.00

KAT6A (Homo sapiens, UniProt Q92794) / pIC50 / Cc1cc(-c2cccc(Cl)c2F)cc(C(=O)NNS(=O)(=O)C2CCCCC2)c1F [Compound I-376] : value?
4.30 to 5.00
